- Assay system: human estrogen receptor α (ERα) (Homo sapiens)
- Sequence (P03372 302-552 limits assumed): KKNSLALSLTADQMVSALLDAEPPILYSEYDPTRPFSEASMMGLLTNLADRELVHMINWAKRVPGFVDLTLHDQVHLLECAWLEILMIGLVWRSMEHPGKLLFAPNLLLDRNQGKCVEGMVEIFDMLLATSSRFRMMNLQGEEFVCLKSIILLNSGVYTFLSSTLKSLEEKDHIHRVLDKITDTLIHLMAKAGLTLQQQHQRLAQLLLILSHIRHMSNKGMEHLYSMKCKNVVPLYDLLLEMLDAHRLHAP
Test readout: pKi
pKi (log units): -log10 of the concentration in mol/L.

Summary: `C[C@]12CC[C@@H]3c4ccc(O)cc4CC[C@H]3[C@@H]1C[C@@H](F)[C@@H]2O` , human estrogen receptor α (ERα) (Homo sapiens), pKi = 9.52

Reference source for all entries: paper PMC10938262
